biological target: rat TRPV1 (Rattus norvegicus, UniProt O35433); construct: FLAG; expressed in transfected cells; host or cells: TRex HEK293 (pcDNA6TR), rat TRPV1 cDNA in pcDNA4TO, tetracycline-induced; test: TRPV1-mediated calcium influx (Fluo-4) in HEK cells inducibly expressing TRPV1; type: cell-based; settings: HEK+TRPV1 cells; each terpene applied alone
Sequence (O35433 whole entry): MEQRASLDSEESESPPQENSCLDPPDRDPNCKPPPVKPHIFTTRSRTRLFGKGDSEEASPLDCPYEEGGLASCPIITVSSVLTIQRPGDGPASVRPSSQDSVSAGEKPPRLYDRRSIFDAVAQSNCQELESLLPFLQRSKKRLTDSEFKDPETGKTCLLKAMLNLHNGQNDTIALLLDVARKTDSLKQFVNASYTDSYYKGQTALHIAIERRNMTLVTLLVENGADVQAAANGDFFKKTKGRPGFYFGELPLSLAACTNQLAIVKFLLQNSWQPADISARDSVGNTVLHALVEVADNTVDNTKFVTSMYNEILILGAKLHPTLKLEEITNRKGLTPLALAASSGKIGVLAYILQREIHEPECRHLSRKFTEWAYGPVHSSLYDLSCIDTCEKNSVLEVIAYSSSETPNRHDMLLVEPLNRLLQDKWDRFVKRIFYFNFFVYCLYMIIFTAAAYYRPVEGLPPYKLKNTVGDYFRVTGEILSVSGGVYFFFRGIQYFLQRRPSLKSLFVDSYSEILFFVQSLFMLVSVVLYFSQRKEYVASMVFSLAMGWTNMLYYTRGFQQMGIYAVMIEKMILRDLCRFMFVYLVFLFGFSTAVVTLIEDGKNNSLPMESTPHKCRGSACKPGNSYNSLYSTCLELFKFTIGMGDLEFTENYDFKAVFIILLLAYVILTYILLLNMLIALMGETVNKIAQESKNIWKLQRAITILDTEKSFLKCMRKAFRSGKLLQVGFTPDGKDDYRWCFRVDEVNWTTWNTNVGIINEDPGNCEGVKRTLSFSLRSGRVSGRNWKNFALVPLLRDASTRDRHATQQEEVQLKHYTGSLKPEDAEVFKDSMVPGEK
reported.metric: calcium influx in response to individual terpene

compound	reported.measurement
CC(C)=CCC[C@](C)(O)[C@@H]1CC=C(C)CC1	not observed
C=CC(C)(O)CCC=C(C)C (stereo not shown)	not observed
C=C/C(C)=C/CC=C(C)C	not observed

The reported numbers originate from patent US20200405657A1.
